Tested on: IGROV1 ovarian
method summary: NCI-60 one-dose screen, 48 h
condition set: 10 µM unless noted
This is part of a sample that, as a whole, favours compounds with a hit. Of some 83,000 tested, about 20% had one in any assay. Active and inactive are the calls of the source. How the source made its calls: active means growth percent below 10; inactive means the rest.
Parameter call: string, one of active, inactive

// outcome(item) with item = `CCn1c(Cc2ccccc2Nc2c(Cl)cccc2Cl)nnc1SCC(=O)Nc1ccccc1C(F)(F)F`
inactive

// outcome(item) with item = `Nc1c(C(=O)Nc2ccccc2)sc2nc3c(cc12)C(=O)CCC3`
inactive

// outcome(item) with item = `CC1=C(/C=C/C(C)=C/C=C(C(=O)O)\C(C)=C\C(=O)O)C(C)(C)CCC1`
inactive

// outcome(item) with item = `Cc1cccc2nc3ccccc3c(Nc3ccc(NS(C)(=O)=O)cc3)c12`
inactive

// outcome(item) with item = `COc1ccc(CNc2c3ccccc3nc3ccc(OC)cc23)cc1`
inactive

// outcome(item) with item = `O=C(C(=O)N1CCCC1)c1cn(CCCn2cc(C(=O)C(=O)N3CCCC3)c3cc(Br)ccc32)c2ccc(Br)cc12`
inactive

// outcome(item) with item = `COc1cccc(/C(C)=N/NC(=O)CSc2nc3ccccc3c(=O)n2CCc2ccc(S(N)(=O)=O)cc2)c1`
inactive

// outcome(item) with item = CC1=CCC2C1CC=C(C)C(CC[C@H]1[C@@](C)(O)CCC3OC(C)(C)[C@H](OC(=O)c4ccccc4)CC[C@@]31C)C2(C)C (stereo partly specified)
inactive

// outcome(item) with item = `Nc1c(Br)cc2c(c1Br)Cc1cc(Cl)ccc1-2`
inactive

// outcome(item) with item = `O=C1c2cccc3cccc(c23)C(=O)N1CCCCCCCCCCN1C(=O)c2cccc3cccc(c23)C1=O`
inactive

// outcome(item) with item = CCCCCCCCOC(=O)C(C)OC(=O)OCCOCCOC(=O)OC(C)C(=O)OCCCCCCCC (stereo unspecified)
inactive

// outcome(item) with item = `CCOC(=O)Nc1ccc2nc(N3CCCCCC3)sc2c1`
inactive

// outcome(item) with item = CCCCCN(CCCCC)C(=O)C(CCC(=O)O)NC(=O)c1ccc(Cl)c(Cl)c1 (stereo unspecified)
inactive

// outcome(item) with item = CC(C)CC(=O)C(CCc1ccccn1)C(C)C (stereo unspecified)
inactive

// outcome(item) with item = `COc1cc(OC)c(C(=O)/C=C/c2cccc(OC(C)=O)c2)cc1CC=C(C)C`
inactive

// outcome(item) with item = CNC1=C([N+](=O)[O-])C(c2ccccc2O)C(C#N)=C(c2cccs2)O1 (stereo unspecified)
inactive

// outcome(item) with item = `COc1cccc(-c2cc(-c3cccs3)c(C#N)c(=O)[nH]2)c1`
inactive

// outcome(item) with item = O=C1C=CN2C(=O)CC=CC2[C@@H]1O (stereo partly specified)
inactive

// outcome(item) with item = `COc1ccc2nc3cc(Cl)ccc3c(NC(=O)CSc3ccc(Cl)cc3)c2c1`
active

// outcome(item) with item = CN1C(=O)N(C)C2C1NN=c1s/c(=C\c3ccc(C(F)(F)F)cc3)c(=O)n12 (stereo unspecified)
inactive

// outcome(item) with item = `COc1ccc2nc3ccccc3c(NCc3ccc(C)cc3)c2c1`
inactive
